- Test system: IGROV1 ovarian
- method: NCI-60 one-dose screen, 48 h (100 = growth as untreated, 0 = no growth, -100 = all killed)
- assay-conditions: 10 µM unless noted
About 83,000 compounds went through this panel and 20% of them were active in at least one assay; those are over-represented in the sample as a whole. Active and inactive are the calls of the source. How the source made its calls: active means growth percent below 10; inactive means the rest.
Listing of entries alongside the reported growth.

{"compound": "NCCc1ccc(OCc2ccccc2)c(OCc2ccccc2)c1", "experimental-system": "IGROV1 ovarian", "growth": "75.2% (inactive)"}
{"compound": "Oc1cc[c]([Hg][Cl])cc1", "experimental-system": "IGROV1 ovarian", "growth": "87.8% (inactive)"}
{"compound": "C[C@H]1CCC/C=C/[C@@H]2C[C@H](O)C[C@H]2[C@H](O)/C=C/C(=O)O1", "experimental-system": "IGROV1 ovarian", "growth": "-54.8% (active)"}
{"compound": "CC[C@@]1(O)C[C@H](OC2CC(N(C)C)C(OC3CC(O)C(OC4CCC(=O)C(C)O4)C(C)O3)C(C)O2)c2c(cc3c(c2O)C(=O)c2c(O)ccc(O)c2C3=O)[C@H]1C(=O)OC (some centres undefined)", "experimental-system": "IGROV1 ovarian", "growth": "-49.2% (active)"}
{"compound": "COc1ccc(OC)c(/C=C/[N+](=O)[O-])c1", "experimental-system": "IGROV1 ovarian", "growth": "-4.14% (active)"}
{"compound": "CC[C@](O)(C(=O)O)c1cc2n(c(=O)c1CO)Cc1cc3ccccc3nc1-2", "experimental-system": "IGROV1 ovarian", "growth": "-48.1% (active)"}
{"compound": "Cc1c(N)nc([C@H](CC(N)=O)NC[C@H](N)C(N)=O)nc1C(=O)N[C@H](C(=O)N[C@H](C)[C@@H](O)[C@H](C)C(=O)N[C@H](C(=O)NCCc1nc(-c2nc(C(=O)NCCC[S+](C)C)cs2)cs1)[C@@H](C)O)C(OC1OC(CO)C(O)C(O)C1OC1OC(CO)C(O)C(OC(N)=O)C1O)c1cnc[nH]1 (some centres undefined)", "experimental-system": "IGROV1 ovarian", "growth": "42.3% [2.5 µM] (inactive)"}
{"compound": "CC[C@@]1(O)C(=O)OCc2c1cc1n(c2=O)Cc2cc3ccccc3nc2-1", "experimental-system": "IGROV1 ovarian", "growth": "-62.2% (active)"}
{"compound": "Cc1cc(N=Nc2ccccc2C)ccc1N", "experimental-system": "IGROV1 ovarian", "growth": "77.1% (inactive)"}

----------
- Test system: U251 CNS
- method: NCI-60 one-dose screen, 48 h
- assay-conditions: 10 µM unless noted
The panel holds about 83,000 compounds, 20% with a hit somewhere; the sample as a whole holds those more often. The source made the active and inactive calls. How the source made its calls: active means growth percent below 10; inactive means the rest.
Classes used: active, inactive

{"compound": "C[C@]12CC[C@H](O)CC1=CC[C@@H]1[C@@H]2CC[C@]2(C)C(=O)CC[C@@H]12", "class": "inactive"}
{"compound": "COc1ccc(OC)c(/C=C/[N+](=O)[O-])c1", "class": "active"}
{"compound": "O=C1c2ccccc2C(=O)C(Cl)C1Cl (configuration not stated)", "class": "inactive"}
{"compound": "Oc1cc[c]([Hg][Cl])cc1", "class": "inactive"}
{"compound": "Cc1ccc(C(=O)OC(C(=O)O)C(OC(=O)c2ccc(C)cc2)C(=O)O)cc1 (configuration not stated) (tested in a mixture with another compound)", "class": "inactive"}
{"compound": "CC[C@@]1(O)C(=O)OCc2c1cc1n(c2=O)Cc2cc3ccccc3nc2-1", "class": "active"}
{"compound": "Cc1c(N)nc([C@H](CC(N)=O)NC[C@H](N)C(N)=O)nc1C(=O)N[C@H](C(=O)N[C@H](C)[C@@H](O)[C@H](C)C(=O)N[C@H](C(=O)NCCc1nc(-c2nc(C(=O)NCCC[S+](C)C)cs2)cs1)[C@@H](C)O)C(OC1OC(CO)C(O)C(O)C1OC1OC(CO)C(O)C(OC(N)=O)C1O)c1cnc[nH]1 (some centres not stated)", "class": "inactive"}

----------
- Test system: MOLT-4 leukemia
- method: NCI-60 one-dose screen, 48 h (100 = growth as untreated, 0 = no growth, -100 = all killed)
- assay-conditions: 10 µM unless noted
This is part of a sample that, as a whole, favours compounds with a hit. Of some 83,000 tested, about 20% had one in any assay. Activity calls are given as the source filed them. The calls were made as follows: active = growth percent below 10; inactive = the rest.

{"molecule": "CC1=C(CO)C2=C(C)C3(CC3)[C@@](C)(O)C(=O)C2=C1", "growth": "16% (inactive)"}
{"molecule": "COc1ccc(OC)c(/C=C/[N+](=O)[O-])c1", "growth": "-4.18% (active)"}
{"molecule": "CCC1(O)CC(OC2CC(N(C)C)C(OC3CC4OC5CC(=O)C(C)OC5OC4C(C)O3)C(C)O2)c2c(cc3c(c2O)C(=O)c2c(O)ccc(O)c2C3=O)C1C(=O)OC (centres undefined)", "growth": "-9.49% (active)"}
{"molecule": "CCOC(=O)C(NC(=O)C(Cc1ccc(N(CCCl)CCCl)cc1)NC(C)=O)C(C)C (centres undefined)", "growth": "56.6% (inactive)"}
{"molecule": "NCCc1ccc(OCc2ccccc2)c(OCc2ccccc2)c1", "growth": "78.1% (inactive)"}
{"molecule": "CC1=C2C(=O)[C@H]3[C@@H](CC=C4C[C@@H](O)CC[C@@]43C)[C@@H]2CC[C@]12O[C@@H]1C[C@H](C)CN[C@H]1[C@H]2C", "growth": "96.9% (inactive)"}
{"molecule": "C[C@H]1CCC/C=C/[C@@H]2C[C@H](O)C[C@H]2[C@H](O)/C=C/C(=O)O1", "growth": "-7.93% (active)"}
{"molecule": "COC1=C(C)C(=O)C2=C(C1=O)C(CO)N1C(C#N)C3CC4C(C1C2N1CCOC41)N3C (centres undefined)", "growth": "-2.61% (active)"}
{"molecule": "Cc1c(N)nc([C@H](CC(N)=O)NC[C@H](N)C(N)=O)nc1C(=O)N[C@H](C(=O)N[C@H](C)[C@@H](O)[C@H](C)C(=O)N[C@H](C(=O)NCCc1nc(-c2nc(C(=O)NCCC[S+](C)C)cs2)cs1)[C@@H](C)O)C(OC1OC(CO)C(O)C(O)C1OC1OC(CO)C(O)C(OC(N)=O)C1O)c1cnc[nH]1 (some centres undefined)", "growth": "67.1% [2.5 µM] (inactive)"}
{"molecule": "CC[C@@]1(O)C(=O)OCc2c1cc1n(c2=O)Cc2cc3ccccc3nc2-1", "growth": "-17.4% (active)"}
{"molecule": "CC[n+]1c(-c2ccccc2)c2cc(N)ccc2c2ccc(N)cc21", "growth": "23.7% (inactive)"}
{"molecule": "CC[C@](O)(C(=O)O)c1cc2n(c(=O)c1CO)Cc1cc3ccccc3nc1-2", "growth": "-38.3% (active)"}
{"molecule": "CC[C@@]1(O)C[C@H](OC2CC(N(C)C)C(O)C(C)O2)c2c(O)c3c(c(O)c2[C@H]1OC1CC(N(C)C)C(O)C(C)O1)C(=O)c1cccc(O)c1C3=O (some centres undefined)", "growth": "-10.5% (active)"}
{"molecule": "Cc1ccc(C(=O)OC(C(=O)O)C(OC(=O)c2ccc(C)cc2)C(=O)O)cc1 (centres undefined) (tested in a mixture with another compound)", "growth": "35.9% (inactive)"}

----------
- Tested on: RXF 393 renal
- method: NCI-60 one-dose screen, 48 h (100 = growth as untreated, 0 = no growth, -100 = all killed)
- assay-conditions: 10 µM unless noted
The panel holds about 83,000 compounds, 20% with a hit somewhere; the sample as a whole holds those more often. Calls of active or inactive are those of the source. How the source made its calls: active means growth percent below 10; inactive means the rest.

{"compound": "Cc1c(N)nc([C@H](CC(N)=O)NC[C@H](N)C(N)=O)nc1C(=O)N[C@H](C(=O)N[C@H](C)[C@@H](O)[C@H](C)C(=O)N[C@H](C(=O)NCCc1nc(-c2nc(C(=O)NCCC[S+](C)C)cs2)cs1)[C@@H](C)O)C(OC1OC(CO)C(O)C(O)C1OC1OC(CO)C(O)C(OC(N)=O)C1O)c1cnc[nH]1 (stereo partly drawn)", "experimental-system": "RXF 393 renal", "growth": "20.5% [2.5 µM] (inactive)"}
{"compound": "CCOC(=O)C(NC(=O)C(Cc1ccc(N(CCCl)CCCl)cc1)NC(C)=O)C(C)C (stereo not drawn)", "experimental-system": "RXF 393 renal", "growth": "96.4% (inactive)"}
{"compound": "O=C1c2ccccc2C(=O)C(Cl)C1Cl (stereo not drawn)", "experimental-system": "RXF 393 renal", "growth": "-9.44% (active)"}

----------
- System: SNB-75 CNS
- method: NCI-60 one-dose screen, 48 h
- assay-conditions: 10 µM unless noted
About 83,000 compounds went through this panel and 20% of them were active in at least one assay; those are over-represented in the sample as a whole. Calls of active or inactive are those of the source. How the source made its calls: active means growth percent below 10; inactive means the rest.
Classes used: active, inactive

{"molecule": "COc1ccc(OC)c(/C=C/[N+](=O)[O-])c1", "class": "inactive"}
{"molecule": "S=C(SSC(=S)N1CCCCC1)N1CCCCC1", "class": "inactive"}
{"molecule": "CCOC(=O)C(NC(=O)C(Cc1ccc(N(CCCl)CCCl)cc1)NC(C)=O)C(C)C (configuration not stated)", "class": "inactive"}
{"molecule": "NCCc1ccc(OCc2ccccc2)c(OCc2ccccc2)c1", "class": "inactive"}
{"molecule": "Cc1cc(N=Nc2ccccc2C)ccc1N", "class": "inactive"}
{"molecule": "CC[C@@]1(O)C[C@H](OC2CC(N(C)C)C(OC3CC(O)C(OC4CCC(=O)C(C)O4)C(C)O3)C(C)O2)c2c(cc3c(c2O)C(=O)c2c(O)ccc(O)c2C3=O)[C@H]1C(=O)OC (some centres not stated)", "class": "active"}
{"molecule": "CO[C@H](/C(C)=C/C=C/C(C)=C/c1coc(C)n1)[C@H](C)[C@H]1C[C@@H](O)[C@@]2(C)O[C@H]2/C=C/[C@@H](C)[C@@H]2C[C@@H](CC(=O)O2)C[C@H]2O[C@@H]2C(=O)O1", "class": "active"}
{"molecule": "Cc1ccc(C(=O)OC(C(=O)O)C(OC(=O)c2ccc(C)cc2)C(=O)O)cc1 (configuration not stated) (tested in a mixture with another compound)", "class": "inactive"}
{"molecule": "CC[C@](O)(C(=O)O)c1cc2n(c(=O)c1CO)Cc1cc3ccccc3nc1-2", "class": "active"}
{"molecule": "CCCCCCCCCCCC1CCCC(C)N1 (configuration not stated)", "class": "inactive"}
{"molecule": "CC[C@@]1(O)C[C@H](OC2CC(N(C)C)C(O)C(C)O2)c2c(O)c3c(c(O)c2[C@H]1OC1CC(N(C)C)C(O)C(C)O1)C(=O)c1cccc(O)c1C3=O (some centres not stated)", "class": "active"}
{"molecule": "CC1=C2C(=O)[C@H]3[C@@H](CC=C4C[C@@H](O)CC[C@@]43C)[C@@H]2CC[C@]12O[C@@H]1C[C@H](C)CN[C@H]1[C@H]2C", "class": "inactive"}
